Kindly state MBC for each of the entries shown.
System: P. aeruginosa ATCC 10145
Assay: MIC/MBC broth microdilution, P. aeruginosa
Assay type: cell-based
Details: water additive EtOH
Residues, ends and D or L forms follow the SMILES beside them.

Entry CC(C)[C@H](NC(=O)[C@H](Cc1c[nH]cn1)NC(=O)[C@H](CCCCN)NC(=O)OCc1ccccc1)C(=O)NCCc1ccccc1 [Compound A-220] (HELM PEPTIDE1{[O=C(OCc1ccccc1)[*:2]].K.H.V.[c1ccc(CCN[*:1])cc1]}$$$$V2.0) — recorded MBC = > 512 µg/mL

Entry CC(C)[C@H](NC(=O)[C@H](Cc1c[nH]cn1)NC(=O)[C@H](CCCNC(=N)N)NC(=O)OCc1ccccc1)C(=O)NCCc1ccccc1 [Compound A-219] (HELM PEPTIDE1{[O=C(OCc1ccccc1)[*:2]].R.H.V.[c1ccc(CCN[*:1])cc1]}$$$$V2.0) — recorded MBC = > 512 µg/mL

Entry CC[C@@H](CNC(=O)/C=C/c1ccccc1)NC(=O)[C@H](CC(C)C)NC(=O)[C@H](CCCNC(=N)N)NC(=O)OCc1ccccc1 — recorded MBC = 256 µg/mL

* * *

Kindly state MIC for each of the entries shown.
Test system: S. mutans c.i.
Experiment: MIC/MBC broth microdilution, S. mutans
Assay type: cell-based, Streptococcus mutans
Details: water additive EtOH
Non-standard residues stand in square brackets, D forms with d. Residues, ends and D or L forms follow the SMILES beside them. *: point of attachment. NHPhenethyl = c1ccc(CCN*)cc1; β3hV = CC(C)[C@H](N)CC(=O)O; Cbz = O=C(OCc1ccccc1)*

Entry CC(C)[C@@H](CNC(=O)C(=Cc1ccccc1)c1ccccc1)NC(=O)[C@H](Cc1c[nH]cn1)NC(=O)[C@H](CCCCNC(=N)N)NC(=O)OCc1ccccc1 — recorded MIC = 8 µg/mL

Entry CC(C)[C@@H](CNC(=O)C(=Cc1ccccc1)c1ccccc1)NC(=O)[C@H](Cc1c[nH]cn1)NC(=O)[C@H](CCCNC(=N)N)NC(=O)OCc1ccccc1 — recorded MIC = 32 µg/mL

Entry CC(C)[C@@H](CNC(=O)C(=Cc1ccccc1)c1ccccc1)NC(=O)[C@H](CCCNC(=N)N)NC(=O)[C@H](CCCCNC(=N)N)NC(=O)OCc1ccccc1 — recorded MIC = > 512 µg/mL

Entry CC(C)C[C@H](NC(=O)[C@H](CCCNC(=N)N)NC(=O)OCc1ccccc1)C(=O)N[C@H](CC(=O)NCCc1ccccc1)C(C)C [Compound A-152] (Cbz-Arg-Leu-[β3hV]-NHPhenethyl) — recorded MIC = > 512 µg/mL

Entry CC(C)C[C@H](NC(=O)[C@H](CCCNC(=N)N)NC(=O)OCc1ccccc1)C(=O)N[C@H](CNC(=O)/C=C/c1ccccc1)C(C)C — recorded MIC = 16 µg/mL

Entry CC(C)[C@H](NC(=O)[C@H](CCCNC(=N)N)NC(=O)[C@H](CCCNC(=N)N)NC(=O)OCc1ccccc1)C(=O)NCCc1ccccc1 [Compound A-221] (HELM PEPTIDE1{[O=C(OCc1ccccc1)[*:2]].R.R.V.[c1ccc(CCN[*:1])cc1]}$$$$V2.0) — recorded MIC = > 512 µg/mL

Entry CC(C)[C@@H](CNC(=O)/C=C/c1ccccc1)NC(=O)[C@H](Cc1c[nH]cn1)NC(=O)[C@H](CCCCN)NC(=O)OCc1ccccc1 — recorded MIC = > 512 µg/mL

Entry CC(C)[C@@H](CNC(=O)C(=Cc1ccccc1)c1ccccc1)NC(=O)[C@H](CCCNC(=N)N)NC(=O)[C@H](CCCNC(=N)N)NC(=O)OCc1ccccc1 — recorded MIC = > 512 µg/mL

Entry Cc1ccccc1COC(=O)N[C@@H](CCCNC(=N)N)C(=O)N[C@@H](CC(C)C)C(=O)N[C@H](CNC(=O)/C=C/c1ccccc1)C(C)C — recorded MIC = > 512 µg/mL

Entry CC(C)[C@@H](CNC(=O)C(=Cc1ccccc1)c1ccccc1)NC(=O)[C@H](CCCNC(=N)N)NC(=O)[C@H](CCCCN)NC(=O)OCc1ccccc1 — recorded MIC = 32 µg/mL

Entry CC(C)C[C@H](NC(=O)[C@H](CCCNC(=N)N)NC(=O)OCc1ccccc1)C(=O)N[C@H](CNC(=O)C(=Cc1ccccc1)c1ccccc1)C(C)C — recorded MIC = > 512 µg/mL
